Just for reference, patent US11926619B2 is where these values come from.

System: Panc 05.04 cells (pancreatic cancer cells; Q699H and K700E mutations in SF3B1)
Test: Cell viability assay (CellTiter-Glo, 72 hr), Panc 05.04 cells
Format: cell-based
Conditions: Panc 05.04 cells (mutant SF3B1); maximum achievable response in tested dose range, negative value = cellular lethality; read-out: Panc 05.04 (mt SF3B1 cells) Emax (%)
Measured Emax of individual entries
Unit % implied. Number only.

Solved cases below.
CCO[C@]1(C)CC[C@@H](O)CC(=O)O[C@H](/C(C)=C/C=C/[C@](C)(O)C[C@H]2O[C@@H]2[C@H](C)[C@@H](O)CC)[C@@H](C)/C=C/[C@@H]1OC(=O)N1CCNCC1 | -75.4
C/C(=C\C=C\[C@@H](C)COC(=O)N1CCCC12COC2)[C@H]1OC(=O)C[C@H](O)CC[C@@](C)(O)[C@@H](OC(=O)N2CCN(C)CC2)/C=C/[C@@H]1C | 90.7

Please look at the following molecule next.
Emax reported for this molecule C/C(=C\C=C\C(C)c1ccnc(N2CC[C@@H](O)C2)n1)[C@H]1OC(=O)CCCCC[C@@H](OC(=O)N2CCN(C3CCCCCC3)CC2)/C=C/[C@@H]1C (stereo partly drawn) : -94.8

====

System: Panc 05.04 cells (pancreatic cancer cells; Q699H and K700E mutations in SF3B1)
Test: Cell viability assay (CellTiter-Glo, 72 hr), Panc 05.04 cells
Format: cell-based
Settings: Panc 05.04 cells (mutant SF3B1); maximum achievable response in tested dose range, negative value = cellular lethality; read-out: Panc 05.04 (mt SF3B1 cells) Emax (%)
Label 1 (yes) when Emax is at or above -70%; otherwise label 0 (no).

C/C(=C\C=C\[C@@H](C)c1ccccn1)[C@H]1OC(=O)C[C@H](O)CC[C@@](C)(O)[C@@H](OC(=O)N2CC[N+](C)([O-])CC2)/C=C/[C@@H]1C | 0 (no)

Task: Say whether CC(=O)O[C@H]1/C=C/[C@H](C)[C@@H](/C(C)=C/C=C/C(C)(O)c2cccs2)OC(=O)C[C@H](O)CC[C@@]1(C)O (some centres unmarked) shows Emax of -70% or more.
Result: 1 (yes)

Task: Say whether C/C(=C\C=C\C(C)c1cccnc1)[C@H]1OC(=O)C[C@H](O)CC[C@@](C)(O)[C@@H](OC(=O)N2CCN(C3CCCCCC3)CC2)/C=C/[C@@H]1C (some centres unmarked) shows Emax of -70% or more.
Result: 0 (no)

====

Target: SF3b complexes (Homo sapiens, UniProt O75533+Q7RTV0)
Construct: endogenous in cells
Assay: Scintillation proximity assay (SPA) with [3H]-labelled pladienolide probe
Conditions: wt SF3B1, read-out: SPA (wt SF3B1 cells) IC50
recorded endpoint: log10 of IC50 (log10 of the value in nM)
Record value = log10 of IC50 given in nM.

C/C(=C\C=C\[C@@H](C)COC(=O)N1CCCC1(C)C)[C@H]1OC(=O)C[C@H](O)CC[C@@](C)(O)[C@@H](OC(=O)N2CCN(C)CC2)/C=C/[C@@H]1C | 0.57
C/C(=C\C=C\[C@@H](C)c1ccccn1)[C@H]1OC(=O)C[C@H](O)CC[C@@](C)(O)[C@@H](OC(=O)N2CCN(C3CCCC3)CC2)/C=C/[C@@H]1C | 0.94
C/C(=C\C=C\[C@@H](C)COC(=O)N1CC[C@@H](O)C1)[C@H]1OC(=O)C[C@H](O)CC[C@H](C)[C@@H](OC(=O)N2CCN(C)CC2)/C=C/[C@@H]1C | 0.73
CC[C@H](O)[C@@H](C)[C@H]1O[C@@H]1C[C@H](C)/C=C/C=C(\C)[C@H]1OC(=O)C[C@H](O)CC[C@@](C)(OC)[C@@H](OC(=O)N2CCNCC2)/C=C/[C@@H]1C | 0.00
C/C(=C\C=C\[C@@H](C)COC(=O)N1CCCC1)[C@H]1OC(=O)C[C@@H](O)CC[C@](C)(O)[C@@H](OC(=O)N2CCN(C)CC2)/C=C/[C@@H]1C | 1.68

log10 of IC50 reported for this molecule `C/C(=C\C=C\[C@@H](C)COC(=O)N1CCCC1)[C@H]1OC(=O)C[C@H](O)CC[C@@](C)(O)[C@@H](OC(=O)N2CCN(C)CC2)/C=C/[C@@H]1C` : 0.32

log10 of IC50 reported for this molecule `CC[C@H](O)[C@@H](C)[C@H]1O[C@@H]1C[C@H](C)/C=C/C=C(\C)[C@H]1OC(=O)C[C@H](O)CC[C@@](C)(OC)[C@@H](OC(=O)N2CCN(C)CC2)/C=C/[C@@H]1C` : 0.18

log10 of IC50 reported for this molecule `CC(=O)O[C@H]1/C=C/[C@H](C)[C@@H](/C(C)=C/C=C/[C@@H](C)COC(=O)N2CCC[C@H]2C)OC(=O)C[C@H](O)CC[C@@]1(C)O` : 0.43

log10 of IC50 reported for this molecule `COC[C@@H]1CCCN1C(=O)OC[C@H](C)/C=C/C=C(\C)[C@H]1OC(=O)C[C@H](O)CC[C@@](C)(O)[C@@H](OC(=O)N2CCN(C3CCCCCC3)CC2)/C=C/[C@@H]1C` : 1.23

log10 of IC50 reported for this molecule `C/C(=C\C=C\[C@@H](C)COC(=O)N1CC[C@H](F)C1)[C@H]1OC(=O)C[C@H](O)CC[C@@](C)(O)[C@@H](OC(=O)N2CCN(C3CCCCCC3)CC2)/C=C/[C@@H]1C` : 0.29

log10 of IC50 reported for this molecule `C/C(=C\C=C\[C@@H](C)c1ccccn1)[C@H]1OC(=O)C[C@H](O)CC[C@@](C)(O)[C@@H](OC(=O)N2C[C@H]3C[C@H]2CN3C)/C=C/[C@@H]1C` : 1.09

log10 of IC50 reported for this molecule `CCCNC(=O)OC[C@H](C)/C=C/C=C(\C)[C@H]1OC(=O)C[C@H](O)CC[C@@](C)(O)[C@@H](OC(C)=O)/C=C/[C@@H]1C` : 2.67

log10 of IC50 reported for this molecule `CC[C@H](O)[C@@H](C)[C@H]1O[C@@H]1C[C@@](C)(O)/C=C/C=C(\C)[C@H]1OC(=O)C[C@H](O)CC[C@H](C)[C@@H](OC(C)=O)/C=C/[C@@H]1C` : 0.72

log10 of IC50 reported for this molecule `CC[C@H](O)[C@@H](C)[C@H]1O[C@@H]1C[C@@](C)(O)/C=C/C=C(\C)[C@H]1OC(=O)C[C@H](O)CC[C@@](C)(OC(=O)N2CCNCC2)[C@@H](OC(C)=O)/C=C/[C@@H]1C` : 0.77

log10 of IC50 reported for this molecule `CC[C@H](O)[C@@H](C)[C@H]1O[C@@H]1C[C@@](C)(O)/C=C/C=C(\C)[C@H]1OC(=O)C[C@H](O)CC[C@@](C)(OC(C)=O)[C@@H](OC(=O)N2CCNCC2)/C=C/[C@@H]1C` : 0.94

log10 of IC50 reported for this molecule `C/C(=C\C=C\[C@@H](C)COC(=O)N1CCCC1)[C@H]1OC(=O)CCCCC[C@@H](OC(=O)N(C)C)/C=C/[C@@H]1C` : 1.85

log10 of IC50 reported for this molecule `C/C(=C\C=C\[C@@H](C)c1ccccn1)[C@H]1OC(=O)C[C@H](O)CC[C@@](C)(O)[C@@H](OC(=O)N2CCN(C3CCOCC3)CC2)/C=C/[C@@H]1C` : 0.93

log10 of IC50 reported for this molecule CC[C@H](O)[C@@H](C)[C@H]1O[C@@H]1C[C@@](C)(O)/C=C/C=C(\C)[C@H]1OC(=O)C[C@H](O)CC[C@@](C)(OC)[C@@H](OC(=O)N2CCNC(CCC(=O)O)C2)/C=C/[C@@H]1C (some centres unmarked) : 1.47

log10 of IC50 reported for this molecule `C/C(=C\C=C\[C@@H](C)c1ccccn1)[C@H]1OC(=O)C[C@H](O)CC[C@@](C)(O)[C@@H](OC(=O)N2CCN(C(C)C)CC2)/C=C/[C@@H]1C` : 0.80

log10 of IC50 reported for this molecule C/C(=C\C=C\C(C)c1ccnc(N(C)C)n1)[C@H]1OC(=O)C[C@H](O)CC[C@@](C)(O)[C@@H](OC(=O)N2CCN(C3CCCCCC3)CC2)/C=C/[C@@H]1C (some centres unmarked) : 1.21

log10 of IC50 reported for this molecule `CC(=O)O[C@H]1/C=C/[C@H](C)[C@@H](/C(C)=C/C=C/[C@@H](C)COC(=O)N2CCN(C)CC2)OC(=O)C[C@H](O)CC[C@@]1(C)O` : 2.37

====

Test system: Panc 05.04 cells (pancreatic cancer cells; Q699H and K700E mutations in SF3B1)
Experiment: Cell viability assay (CellTiter-Glo, 72 hr), Panc 05.04 cells
Type: cell-based
Conditions: Panc 05.04 cells (mutant SF3B1); maximum achievable response in tested dose range, negative value = cellular lethality; read-out: Panc 05.04 (mt SF3B1 cells) Emax (%)
The recorded Emax of each item maps onto one of these classes: group A: < -80%; group B: ≥ -80% and < -60%; group C: ≥ -60%

Worked examples follow.
CC(=O)O[C@H]1/C=C/[C@H](C)[C@@H](/C(C)=C/C=C/[C@](C)(O)CCc2ccccc2)OC(=O)C[C@H](O)CC[C@@]1(C)O | group C
C/C(=C\C=C\[C@@H](C)COC(=O)N1CC[C@@H](O)C1)[C@H]1OC(=O)C[C@H](O)CC[C@@](C)(O)[C@@H](OC(=O)N2CCN(C3CCCCCC3)CC2)/C=C/[C@@H]1C | group A

Task: Which category fits this record: `C/C(=C\C=C\[C@H](C)c1ccccn1)[C@H]1OC(=O)C[C@H](O)CC[C@@](C)(O)[C@@H](OC(=O)N2CCN(C)CC2)/C=C/[C@@H]1C`
Result: group C

Task: Which category fits this record: `C/C(=C\C=C\[C@@H](C)COC(=O)N1CCC[C@H]1C)[C@H]1OC(=O)CCCCC[C@@H](OC(=O)N2CCN(C)CC2)/C=C/[C@@H]1C`
Result: group B

Task: Which category fits this record: `CC(=O)O[C@H]1/C=C/[C@H](C)[C@@H](/C(C)=C/C=C/Cc2ccccn2)OC(=O)C[C@H](O)CC[C@@]1(C)O`
Result: group C

Task: Which category fits this record: `C/C(=C\C=C\[C@@H](C)COC(=O)N1CC[C@@H](O)C1)[C@H]1OC(=O)CCCC[C@@](C)(O)[C@@H](OC(=O)N2CCN(C)CC2)/C=C/[C@@H]1C`
Result: group A

Task: Which category fits this record: `CC(=O)O[C@H]1/C=C/[C@H](C)[C@@H](/C(C)=C/C=C/[C@@H](C)COC(=O)N2CCC[C@@H]2CO)OC(=O)C[C@H](O)CC[C@@]1(C)O`
Result: group A

Task: Which category fits this record: C/C(=C\C=C\C(C)c1cnccn1)[C@H]1OC(=O)C[C@H](O)CC[C@@](C)(O)[C@@H](OC(=O)N2CCN(C3CCCCCC3)CC2)/C=C/[C@@H]1C (stereo partly drawn)
Result: group A

Task: Which category fits this record: `CC[C@H](O)[C@@H](C)[C@H]1O[C@@H]1C[C@@](C)(O)/C=C/C=C(\C)[C@H]1OC(=O)C[C@H](O)CC[C@@](C)(OC(C)=O)[C@@H](OC(=O)N2CCNCC2)/C=C/[C@@H]1C`
Result: group B

Task: Which category fits this record: `C/C(=C\C=C\[C@@H](C)COC(=O)N1CCc2ccccc21)[C@H]1OC(=O)C[C@H](O)CC[C@@](C)(O)[C@@H](OC(=O)N2CCN(C)CC2)/C=C/[C@@H]1C`
Result: group A

Task: Which category fits this record: `C/C(=C\C=C\[C@@H](C)CO)[C@H]1OC(=O)C[C@H](O)CC[C@@](C)(O)[C@@H](OC(=O)N2CCN(C)CC2)/C=C/[C@@H]1C`
Result: group C
